Numbers sourced from patent US8383637B2.

- Test Target: β-secretase(BACE) (Homo sapiens, UniProt P56817)
- Construct: purchased Panvera
- Sequence (P56817 46-501): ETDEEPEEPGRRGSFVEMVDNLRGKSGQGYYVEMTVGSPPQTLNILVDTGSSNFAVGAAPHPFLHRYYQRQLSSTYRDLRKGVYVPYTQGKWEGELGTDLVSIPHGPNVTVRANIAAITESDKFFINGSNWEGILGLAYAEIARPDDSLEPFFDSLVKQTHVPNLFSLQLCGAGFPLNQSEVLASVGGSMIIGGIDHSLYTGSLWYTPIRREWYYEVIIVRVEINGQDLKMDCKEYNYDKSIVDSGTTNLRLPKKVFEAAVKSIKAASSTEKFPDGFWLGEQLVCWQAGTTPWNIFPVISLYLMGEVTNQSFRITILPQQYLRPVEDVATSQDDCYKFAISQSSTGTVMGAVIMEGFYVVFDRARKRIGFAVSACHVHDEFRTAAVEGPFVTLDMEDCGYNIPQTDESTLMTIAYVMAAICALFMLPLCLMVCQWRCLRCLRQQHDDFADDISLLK
- Measurement Protocol: BACE FS1% Inhibition Assay
- Format: biochemical
- Condition Details: 0.3 μM test compound; FS1 substrate
Known % Inhibition (FS) 0.3 μM of a selection of molecules

Sample records with % Inhibition (FS) 0.3 μM:
{"columns": ["Molecule", "Result"],
 "data": [
  ["CN(C(=O)c1cccc(CN2Cc3cc(-c4ccc5[nH]ccc5c4)ccc3N=C2N)c1)C1CCCCC1", "<30%"],
  ["CC(C)(C)C(=O)NCCN1Cc2cc(-c3ccccc3Cl)ccc2N=C1N", "46%"],
  ["NC1=Nc2ccc(Oc3ccccc3)cc2CN1Cc1cccc(C(=O)NCCc2ccc(S(N)(=O)=O)cc2)c1", "<30%"],
  ["CC(C)C(CNC(=O)C12CC3CC(CC(C3)C1)C2)N1Cc2cc(Oc3ccccc3)ccc2N=C1N (stereo not drawn)", "106%"],
  ["CC(C)CCC(=O)N1CCCC(N2Cc3cc(Oc4ccccc4)ccc3N=C2N)C1 (stereo not drawn)", "36%"]
]}

Request: Give recorded % Inhibition (FS) 0.3 μM with β-secretase(BACE) (Homo sapiens, UniProt P56817) for the following molecule: `CSc1ccc(Nc2ccc3c(c2)CN(Cc2cccc(C(=O)N(C)C4CCCCC4)c2)C(N)=N3)cc1`
Result: <30%

Request: Try this molecule too: `Cc1cccc(Nc2ccc3c(c2)CN(Cc2cccc(C(=O)N(C)C4CCCCC4)c2)C(N)=N3)c1`
Result: <30%

Request: Try this molecule too: CC(C)C(CC(=O)NC1C2CC3CC(C2)CC1C3)N1Cc2cc(Oc3ccccc3)ccc2N=C1N (stereo not drawn)
Result: <30%

Request: Try this molecule too: `CN(CCN1Cc2cc(Oc3ccccc3)ccc2N=C1N)C1CCCCC1`
Result: <30%
